Starred links: 1 amine or outer side, 2 acyl side, 3 side chain; linkers in the order of their positions; H or OH if unused. Non-standard residues stand in square brackets, D forms with d. Residues, ends and D or L forms follow the SMILES beside them. Ala(9-anthryl) = N[C@@H](Cc1c2ccccc2cc2ccccc12)C(=O)O; Pro(4R-Bn) = O=C(O)[C@@H]1C[C@@H](Cc2ccccc2)CN1; 1Nal = N[C@@H](Cc1cccc2ccccc12)C(=O)O; Tic = O=C(O)[C@@H]1Cc2ccccc2CN1; Cysteamide = C(CS[*:3])N[*:1]; Chg = N[C@H](C(=O)O)C1CCCCC1; Phg = N[C@H](C(=O)O)c1ccccc1; Tle = CC(C)(C)[C@H](N)C(=O)O; NMeA = CN[C@@H](C)C(=O)O
For each entry below, report its pEC50 value.
Notebook: values listed as pEC50 are -log10 of the concentration (mol/L).

Known value: MDA-MB-231 breast cancer cell line pEC50 of the molecule CN[C@@H](C)C(=O)N[C@H](C(=O)N1C[C@H](Cc2ccccc2)C[C@H]1C(=O)N1Cc2ccccc2C[C@H]1C(=O)NCCS)C(C)(C)C [SMAC11, N^MeAla-Tle-(4-Bzl)Pro-Tic-NHCH2CH2SH] (H-[NMeA][Tle][Pro(4R-Bn)][Tic]-Cysteamide; N-terminus assumed) equals 4.88

Known value: MDA-MB-231 breast cancer cell line pEC50 of the molecule `CN[C@@H](C)C(=O)N[C@H](C(=O)N1C[C@H](Cc2ccccc2)C[C@H]1C(=O)NCc1ccc(CC(=O)NCCS)cc1)C(C)(C)C` equals 4.84

Known value: MDA-MB-231 breast cancer cell line pEC50 of the molecule CN[C@@H](C)C(=O)N[C@H](C(=O)N1C[C@H](Cc2ccccc2)C[C@H]1C(=O)N[C@H](C(=O)NCCS)C1CCCCC1)C(C)(C)C [SMAC6, N^MeAla-Tle-(4-Bzl)Pro-Chg-NHCH2CH2SH] (H-[NMeA][Tle][Pro(4R-Bn)][Chg]-Cysteamide; N-terminus assumed) equals 5.01

Known value: MDA-MB-231 breast cancer cell line pEC50 of the molecule `CN[C@@H](C)C(=O)N[C@H](C(=O)N1C[C@H](Cc2ccccc2)C[C@H]1C(=O)N[C@@H](Cc1ccccc1)C(=O)NCCS)C(C)(C)C` equals 4.46

Known value: MDA-MB-231 breast cancer cell line pEC50 of the molecule CN[C@@H](C)C(=O)N[C@H](C(=O)N1C[C@H](Cc2ccccc2)C[C@H]1C(=O)N[C@H](C(=O)NCCS)c1ccccc1)C(C)(C)C [SMAC1, N^MeAla-Tle-(4-Bzl)Pro-Phg-NHCH2CH2SH] (H-[NMeA][Tle][Pro(4R-Bn)][Phg]-Cysteamide; N-terminus assumed) equals 4.76

Known value: MDA-MB-231 breast cancer cell line pEC50 of the molecule CN[C@@H](C)C(=O)N[C@H](C(=O)N1C[C@H](Cc2ccccc2)C[C@H]1C(=O)N[C@@H](Cc1c2ccccc2cc2ccccc12)C(=O)NCCS)C(C)(C)C [SMAC18, N^MeAla-Tle-(4-Bzl)Pro-Ant-NHCH2CH2SH] (H-[NMeA][Tle][Pro(4R-Bn)][Ala(9-anthryl)]-Cysteamide) equals 4.76

Known value: MDA-MB-231 breast cancer cell line pEC50 of the molecule CN[C@@H](C)C(=O)N[C@H](C(=O)N1C[C@H](Cc2ccccc2)C[C@H]1C(=O)N[C@@H](Cc1cccc2ccccc12)C(=O)NCCS)C(C)(C)C [SMAC14, N^MeAla-Tle-(4-Bzl)Pro-^1Na1-NHCH2CH2SH] (H-[NMeA][Tle][Pro(4R-Bn)][1Nal]-Cysteamide; N-terminus assumed) equals 5.35
